A collection of compounds and their measured IC50
# assaySystem: nicotinic acetylcholine receptor nAChR (a4/b2) (Homo sapiens, UniProt P17787+P43681)
# Construct: expressed in transfected cells
# Sequence (P43681 29-627 limits assumed): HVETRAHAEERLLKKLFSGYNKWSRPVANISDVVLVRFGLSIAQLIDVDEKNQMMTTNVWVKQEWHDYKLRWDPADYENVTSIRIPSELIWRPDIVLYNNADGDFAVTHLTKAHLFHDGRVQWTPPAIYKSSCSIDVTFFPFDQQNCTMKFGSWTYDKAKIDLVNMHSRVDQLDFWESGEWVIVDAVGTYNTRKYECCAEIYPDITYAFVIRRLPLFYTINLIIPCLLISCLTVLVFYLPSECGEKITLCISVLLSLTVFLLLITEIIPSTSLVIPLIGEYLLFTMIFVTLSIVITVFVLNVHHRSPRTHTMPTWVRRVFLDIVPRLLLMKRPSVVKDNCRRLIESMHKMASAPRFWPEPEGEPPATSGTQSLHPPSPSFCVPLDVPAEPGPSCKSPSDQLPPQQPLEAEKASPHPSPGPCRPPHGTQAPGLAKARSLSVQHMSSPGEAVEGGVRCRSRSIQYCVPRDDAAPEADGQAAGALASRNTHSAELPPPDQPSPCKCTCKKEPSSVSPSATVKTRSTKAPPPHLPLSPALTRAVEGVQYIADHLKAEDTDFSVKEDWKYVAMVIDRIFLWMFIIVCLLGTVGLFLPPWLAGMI
# Sequence (P17787 26-502): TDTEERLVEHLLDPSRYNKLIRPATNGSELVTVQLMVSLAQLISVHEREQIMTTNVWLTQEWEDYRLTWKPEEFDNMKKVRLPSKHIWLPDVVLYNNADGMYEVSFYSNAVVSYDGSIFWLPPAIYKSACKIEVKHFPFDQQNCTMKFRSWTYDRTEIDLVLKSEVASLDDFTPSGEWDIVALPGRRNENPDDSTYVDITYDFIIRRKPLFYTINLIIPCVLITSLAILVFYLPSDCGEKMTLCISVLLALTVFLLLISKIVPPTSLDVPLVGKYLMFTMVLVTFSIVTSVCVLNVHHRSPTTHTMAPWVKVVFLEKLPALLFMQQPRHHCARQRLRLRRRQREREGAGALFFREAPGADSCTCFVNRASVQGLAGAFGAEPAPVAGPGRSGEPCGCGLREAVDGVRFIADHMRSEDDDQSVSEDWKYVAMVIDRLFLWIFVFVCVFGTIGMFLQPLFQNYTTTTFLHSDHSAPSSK
# protocol: FLIPR Membrane Potential ion channel assay, nAChR (a4/b2) blocker
# Type: cell-based
# studyConditions: read-out: EC50/IC50
readoutLabel: IC50 (µM)

compound: [2H]C([2H])([2H])NC(C)Cc1ccc2c(c1)OCO2 (centres unmarked) [MDMA-d3]
valueMeasured: 4.38
--
compound: CNC(C)Cc1ccc2c(c1)OCO2 (centres unmarked) [MDMA, 3,4-methylenedioxymethamphetamine]
valueMeasured: 3.19

These measurements were taken from patent US12221428B2.
